tested on: HCC1569; assay: H1.0 immunofluorescence intensity relative to DMSO (% of DMSO); higher = stronger H1.0 induction, active = 140 or more; conditions: concentration: 10 µM; 24 h;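 further: TDF is a line of transformed human dermal fibroblasts of mesenchymal origin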
Kind request: treat 100 as inclusive, so H1.0 immunofluorescence intensity at 100 or higher is Condition met, anything lower is Condition not met.

**Q:** Decide: H1.0 immunofluorescence intensity of CCCOC(=O)c1cc(O)c(O)c(O)c1 [N-Propyl gallate] >= 100?
**A:** Condition met

**Q:** Determine whether measured H1.0 immunofluorescence intensity meets or exceeds 100 for NS(=O)(=O)c1cccc2c1c([N+](=O)[O-])cc1nc([O-])c([O-])nc12.[Na+].[Na+] [NBQX disodium]
**A:** Condition not met

**Q:** Is the recorded value of H1.0 immunofluorescence intensity equal to or greater than 100 for this molecule? CCCCCCCCCCCCCCCC(O)C(N)CO (stereo not drawn) [Dihydrosphingosine]
**A:** Condition met

Ref: the supplement of paper PMC7156485
